Test system: NCI-H522
experiment: NCI tumour cell line growth inhibition, 48 h
The source made the active and inactive calls. Rule as the data show it: active = GI50 up to about 1.1 µM and inactive = higher.
Parameter call: string, one of active, inactive

[Q] Outcome logged for CCC1CCC2c3c([nH]c4ccccc34)C3C(=O)N(c4ccc(OC)cc4)C(=O)C3C2C1 (stereo unspecified) in this assay:
[A] inactive

[Q] Outcome logged for "Cc1ccc2c(C)c3ccc4ccccc4c3c[n+]2c1.[O-][Cl+3]([O-])([O-])[O-]" in this assay:
[A] inactive

[Q] Outcome logged for COc1cc(O)c2c(c1)C(=O)C1=C(C2=O)C(O)C[C@@](C)(O)C1 (stereo partly specified) in this assay:
[A] active

[Q] Outcome logged for "NNC(=S)N/N=C(\C(=O)Nc1cccc(O)c1)C1C(=O)NC(=S)NC1=O" in this assay:
[A] inactive

[Q] Outcome logged for "C=C(Br)CN(CC(=C)Br)C(C)=O" in this assay:
[A] inactive

[Q] Outcome logged for C=CC1(C)CCC(C(C)C(=O)C(C=C(C)C)OC(C)=O)C12C(=O)Oc1ccccc1C2=O (stereo unspecified) in this assay:
[A] inactive

[Q] Outcome logged for "Cc1cc2[n-][n+]3ncc(-c4ccccc4)n3c2cc1[N+](=O)[O-]" in this assay:
[A] inactive

[Q] Outcome logged for CCOC(=O)C(SCCO)C(C(=O)OCC)n1ccc(=O)[nH]c1=O (stereo unspecified) in this assay:
[A] inactive
